Biological target: canine IL-4RA (construct not given) (canine)
Test: SPR, IL-4RA immobilised, periplasmic Fab
readout: RU max (RU)
Respond with the bare value in RU.

FJ2246MP06F11 (Fab, V domains shown) VH: EVQLVESGGDLVKPGGSLRLSCVASGFTFRDYAMTWVRQAPGKGLQWVSLINGDGSKTYYADAVKGRFTISRDNAKNTLYLQMNSLRAEDTAVYYCAVDRLTKTIRPQYYGLWVWGQGTLVTVSS VL: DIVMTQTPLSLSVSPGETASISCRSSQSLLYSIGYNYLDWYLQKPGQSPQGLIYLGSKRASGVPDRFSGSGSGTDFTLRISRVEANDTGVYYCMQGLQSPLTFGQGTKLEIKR | 196

Returns the measured RU max for the input binder. Input: FJ2246MP10G04 (Fab, V domains shown) VH: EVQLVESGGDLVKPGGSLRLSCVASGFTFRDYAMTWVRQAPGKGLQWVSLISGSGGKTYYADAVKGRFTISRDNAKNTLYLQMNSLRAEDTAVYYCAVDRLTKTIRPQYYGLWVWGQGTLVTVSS VL: DIVMTQTPLSLSVSPGETASISCRSSQSLLYSIGYNYLDWYLQKPGQSPQGLIYLGSKRASGVPDRFSGSGSGTDFTLRISRVEAEDTGVYYCMQGLQSPLSFGQGTKLEIK
251

Returns the measured RU max for the input binder. Input: FJ2246MP10B07 (Fab, V domains shown) VH: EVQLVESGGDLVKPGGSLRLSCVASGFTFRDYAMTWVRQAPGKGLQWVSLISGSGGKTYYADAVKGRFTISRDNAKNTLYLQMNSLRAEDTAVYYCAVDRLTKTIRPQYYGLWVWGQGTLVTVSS VL: DIVMTQTPLSLSVSPGETASISCRSSQSLLYSIGYNYLDWYLQKPGQSPQGLIYLGSKRASGVPDRFSGSGSGTDFTLRISRVEAEDTGVYYCMQGLHSPLTFGQGTKLEIK
252

Returns the measured RU max for the input binder. Input: FJ2246MP10B02 (Fab, V domains shown) VH: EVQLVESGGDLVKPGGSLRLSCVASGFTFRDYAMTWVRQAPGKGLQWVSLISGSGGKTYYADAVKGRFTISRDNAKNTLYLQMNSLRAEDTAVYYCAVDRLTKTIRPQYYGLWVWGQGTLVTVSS VL: DIVMTQTPLSLSVSPGETASISCRSSQSLLYSIGYNYLDWYLQKPGQSPQGLIYLGSKRASGVPDRFSGSGSGTDFTLRISRVEANDTGVYYCMQGLHSPLTFGQGTKLEIK
202

Returns the measured RU max for the input binder. Input: FJ2246MP07A10 (Fab, V domains shown) VH: EVQLVESGGDLVKPGGSLRLSCVASGFTFRDYAMTWVRQAPGKGLQWVSLINGSGGKTYYADAVKGRFTISRDNAKNTLYLQMNSLRAEDTAVYYCAVDRLTKTVRPQYYGLWSWGQGTLVTVSS VL: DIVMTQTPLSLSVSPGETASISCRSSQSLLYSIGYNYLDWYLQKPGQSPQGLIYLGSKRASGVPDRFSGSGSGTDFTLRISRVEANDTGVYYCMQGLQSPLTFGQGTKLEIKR
614
